Target: UniProt P33764
Sequence (P33764 1-101): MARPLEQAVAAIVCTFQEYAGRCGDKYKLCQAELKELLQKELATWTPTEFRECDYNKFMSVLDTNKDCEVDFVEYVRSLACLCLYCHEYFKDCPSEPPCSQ
pKd: −log10 of the molar value.
Entries and their pKd
property.name: pKd

compound	property.name	obs.value
CC(C)C[C@@H](CC(=O)N[C@H]1CCCC[C@@H]1C(=O)NCC(=O)N[C@@H](CCCCNC(=O)c1ccc2c(c1)C1(OC2=O)c2ccc(O)cc2Oc2cc(O)ccc21)C(N)=O)NC(=O)[C@H]1CCCC[C@@H]1NC(=O)[C@H]1CCCC[C@@H]1NC(=O)C[C@H](Cc1c[nH]c2ccccc12)NC(=O)[C@H]1CCCC[C@@H]1N [fWL]	pKd	< 3.00
CC[C@H](C)[C@@H](CC(=O)N[C@H]1CCCC[C@@H]1C(=O)N[C@H]1CCCC[C@@H]1C(=O)N[C@H](CC(=O)N[C@H]1CCCC[C@@H]1C(=O)NCC(=O)N[C@@H](CCCCNC(=O)c1ccc2c(c1)C1(OC2=O)c2ccc(O)cc2Oc2cc(O)ccc21)C(N)=O)CC(C)C)NC(=O)[C@H]1CCCC[C@@H]1N [fIL]	pKd	< 3.00

---

Protein target, amino acids: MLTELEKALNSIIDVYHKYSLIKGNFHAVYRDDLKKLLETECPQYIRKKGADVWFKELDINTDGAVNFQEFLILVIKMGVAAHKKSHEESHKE
pKd: −log10 of the molar value.
A collection of molecules and their measured pKd

smiles.entry	pKd
NC(=O)[C@H](CCCCNC(=O)c1ccc2c(c1)C1(OC2=O)c2ccc(O)cc2Oc2cc(O)ccc21)NC(=O)CNC(=O)[C@H]1CCCC[C@@H]1NC(=O)C[C@H](Cc1ccccc1)NC(=O)[C@H]1CCCC[C@@H]1NC(=O)[C@H]1CCCC[C@@H]1NC(=O)C[C@H](Cc1ccc(O)cc1)NC(=O)[C@H]1CCCC[C@@H]1N	3.74
NC(=O)[C@H](CCCCNC(=O)c1ccc2c(c1)C1(OC2=O)c2ccc(O)cc2Oc2cc(O)ccc21)NC(=O)CNC(=O)[C@H]1CCCC[C@@H]1NC(=O)C[C@H](Cc1c[nH]c2ccccc12)NC(=O)[C@H]1CCCC[C@@H]1NC(=O)[C@H]1CCCC[C@@H]1NC(=O)C[C@H](Cc1c[nH]c2ccccc12)NC(=O)[C@H]1CCCC[C@@H]1N	< 3.00
N=C(N)NCCC[C@@H](CC(=O)N[C@H]1CCCC[C@@H]1C(=O)NCC(=O)N[C@@H](CCCCNC(=O)c1ccc2c(c1)C1(OC2=O)c2ccc(O)cc2Oc2cc(O)ccc21)C(N)=O)NC(=O)[C@H]1CCCC[C@@H]1NC(=O)[C@H]1CCCC[C@@H]1NC(=O)C[C@H](CCCNC(=N)N)NC(=O)[C@H]1CCCC[C@@H]1N	< 3.00

---

As a worked illustration, we turn to pKd data collected for S100A8 (Homo sapiens, UniProt P05109).
pKd: −log10 of the molar value.

smiles.entry	pKd
CC[C@H](C)[C@@H](CC(=O)N[C@H]1CCCC[C@@H]1C(=O)NCC(=O)N[C@@H](CCCCNC(=O)c1ccc2c(c1)C1(OC2=O)c2ccc(O)cc2Oc2cc(O)ccc21)C(N)=O)NC(=O)[C@H]1CCCC[C@@H]1NC(=O)[C@H]1CCCC[C@@H]1NC(=O)C[C@@H](NC(=O)[C@H]1CCCC[C@@H]1N)[C@@H](C)O	< 3.00
CC[C@H](C)[C@@H](CC(=O)N[C@H]1CCCC[C@@H]1C(=O)N[C@H]1CCCC[C@@H]1C(=O)N[C@H](CC(=O)N[C@H]1CCCC[C@@H]1C(=O)NCC(=O)N[C@@H](CCCCNC(=O)c1ccc2c(c1)C1(OC2=O)c2ccc(O)cc2Oc2cc(O)ccc21)C(N)=O)CC(C)C)NC(=O)[C@H]1CCCC[C@@H]1N	< 3.00
N=C(N)NCCC[C@@H](CC(=O)N[C@H]1CCCC[C@@H]1C(=O)N[C@H]1CCCC[C@@H]1C(=O)N[C@H](CC(=O)N[C@H]1CCCC[C@@H]1C(=O)NCC(=O)N[C@@H](CCCCNC(=O)c1ccc2c(c1)C1(OC2=O)c2ccc(O)cc2Oc2cc(O)ccc21)C(N)=O)Cc1ccccc1)NC(=O)[C@H]1CCCC[C@@H]1N	< 3.00
CC(C)C[C@@H](CC(=O)N[C@H]1CCCC[C@@H]1C(=O)NCC(=O)N[C@@H](CCCCNC(=O)c1ccc2c(c1)C1(OC2=O)c2ccc(O)cc2Oc2cc(O)ccc21)C(N)=O)NC(=O)[C@H]1CCCC[C@@H]1NC(=O)[C@H]1CCCC[C@@H]1NC(=O)C[C@@H](NC(=O)[C@H]1CCCC[C@@H]1N)C(C)C	< 3.00
C[C@@H](O)[C@@H](CC(=O)N[C@H]1CCCC[C@@H]1C(=O)N[C@H]1CCCC[C@@H]1C(=O)N[C@H](CC(=O)N[C@H]1CCCC[C@@H]1C(=O)NCC(=O)N[C@@H](CCCCNC(=O)c1ccc2c(c1)C1(OC2=O)c2ccc(O)cc2Oc2cc(O)ccc21)C(N)=O)Cc1c[nH]c2ccccc12)NC(=O)[C@H]1CCCC[C@@H]1N	3.11
CC[C@H](C)[C@@H](CC(=O)N[C@H]1CCCC[C@@H]1C(=O)N[C@H]1CCCC[C@@H]1C(=O)N[C@H](CC(=O)N[C@H]1CCCC[C@@H]1C(=O)NCC(=O)N[C@@H](CCCCNC(=O)c1ccc2c(c1)C1(OC2=O)c2ccc(O)cc2Oc2cc(O)ccc21)C(N)=O)Cc1ccccc1)NC(=O)[C@H]1CCCC[C@@H]1N	3.12

---

Entries and their Kd
Target chain: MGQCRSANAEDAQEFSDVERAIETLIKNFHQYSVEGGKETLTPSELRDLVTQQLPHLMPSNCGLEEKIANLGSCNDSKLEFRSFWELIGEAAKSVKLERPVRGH
property.name: Kd

smiles.entry	obs.value
C[C@@H](O)[C@@H](CC(=O)N[C@H]1CCCC[C@@H]1C(=O)N[C@H]1CCCC[C@@H]1C(=O)N[C@H](CC(=O)N[C@H]1CCCC[C@@H]1C(=O)NCC(=O)N[C@@H](CCCCNC(=O)c1ccc2c(c1)C1(OC2=O)c2ccc(O)cc2Oc2cc(O)ccc21)C(N)=O)Cc1c[nH]c2ccccc12)NC(=O)[C@H]1CCCC[C@@H]1N	> 1000 µM
N=C(N)NCCC[C@@H](CC(=O)N[C@H]1CCCC[C@@H]1C(=O)N[C@H]1CCCC[C@@H]1C(=O)N[C@H](CC(=O)N[C@H]1CCCC[C@@H]1C(=O)NCC(=O)N[C@@H](CCCCNC(=O)c1ccc2c(c1)C1(OC2=O)c2ccc(O)cc2Oc2cc(O)ccc21)C(N)=O)Cc1ccccc1)NC(=O)[C@H]1CCCC[C@@H]1N	> 1000 µM
CSCC[C@@H](CC(=O)N[C@H]1CCCC[C@@H]1C(=O)NCC(=O)N[C@@H](CCCCNC(=O)c1ccc2c(c1)C1(OC2=O)c2ccc(O)cc2Oc2cc(O)ccc21)C(N)=O)NC(=O)[C@H]1CCCC[C@@H]1NC(=O)[C@H]1CCCC[C@@H]1NC(=O)C[C@@H](NC(=O)[C@H]1CCCC[C@@H]1N)[C@@H](C)O	> 1000 µM

---

biological target: S100P (Homo sapiens); assay: direct fluorescence polarization (FP), S100P; conditions: 50 nM labeled foldamer, 20 mM HEPES pH 7.5, 150 mM NaCl, 1 mM CaCl2, 0.5 mM TCEP, 0.01% Tween20, quadratic fit, mean ± SEM, three technical repeats, threshold 1 mM
Sequence (P25815 whole entry): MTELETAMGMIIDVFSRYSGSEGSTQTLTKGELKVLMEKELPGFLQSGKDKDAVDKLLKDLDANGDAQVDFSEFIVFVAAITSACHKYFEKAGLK
property.name: Kd (µM)

smiles.entry	measurement.units	obs.value
CC[C@H](C)[C@@H](CC(=O)N[C@H]1CCCC[C@@H]1C(=O)N[C@H]1CCCC[C@@H]1C(=O)N[C@H](CC(=O)N[C@H]1CCCC[C@@H]1C(=O)NCC(=O)N[C@@H](CCCCNC(=O)c1ccc2c(c1)C1(OC2=O)c2ccc(O)cc2Oc2cc(O)ccc21)C(N)=O)Cc1ccccc1)NC(=O)[C@H]1CCCC[C@@H]1N	µM	140
NC(=O)[C@H](CCCCNC(=O)c1ccc2c(c1)C1(OC2=O)c2ccc(O)cc2Oc2cc(O)ccc21)NC(=O)CNC(=O)[C@H]1CCCC[C@@H]1NC(=O)C[C@H](Cc1c[nH]c2ccccc12)NC(=O)[C@H]1CCCC[C@@H]1NC(=O)[C@H]1CCCC[C@@H]1NC(=O)C[C@H](Cc1c[nH]c2ccccc12)NC(=O)[C@H]1CCCC[C@@H]1N	µM	190

---

Target protein (sequence): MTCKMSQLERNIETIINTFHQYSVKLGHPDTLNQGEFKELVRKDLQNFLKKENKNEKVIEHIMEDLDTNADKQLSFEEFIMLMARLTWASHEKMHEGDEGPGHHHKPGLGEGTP
pKd: −log10 of the molar value.
Quick reference for pKd among some molecules

molecule	pKd
NC(=O)[C@H](CCCCNC(=O)c1ccc2c(c1)C1(OC2=O)c2ccc(O)cc2Oc2cc(O)ccc21)NC(=O)CNC(=O)[C@H]1CCCC[C@@H]1NC(=O)C[C@H](Cc1c[nH]c2ccccc12)NC(=O)[C@H]1CCCC[C@@H]1NC(=O)[C@H]1CCCC[C@@H]1NC(=O)C[C@H](Cc1c[nH]c2ccccc12)NC(=O)[C@H]1CCCC[C@@H]1N [fWW]	< 3.00
CC(C)C[C@@H](CC(=O)N[C@H]1CCCC[C@@H]1C(=O)NCC(=O)N[C@@H](CCCCNC(=O)c1ccc2c(c1)C1(OC2=O)c2ccc(O)cc2Oc2cc(O)ccc21)C(N)=O)NC(=O)[C@H]1CCCC[C@@H]1NC(=O)[C@H]1CCCC[C@@H]1NC(=O)C[C@H](Cc1c[nH]c2ccccc12)NC(=O)[C@H]1CCCC[C@@H]1N [fWL]	< 3.00
CC(C)C[C@@H](CC(=O)N[C@H]1CCCC[C@@H]1C(=O)NCC(=O)N[C@@H](CCCCNC(=O)c1ccc2c(c1)C1(OC2=O)c2ccc(O)cc2Oc2cc(O)ccc21)C(N)=O)NC(=O)[C@H]1CCCC[C@@H]1NC(=O)[C@H]1CCCC[C@@H]1NC(=O)C[C@@H](NC(=O)[C@H]1CCCC[C@@H]1N)C(C)C [fVL]	< 3.00
